# assay-name: Drug metabolism in human hepatic microsomes at 5 uM incubated for 20 mins in presence of NADPH by liquid chromatography-tandem mass spectrometry
# Format: ADME, Microsome
# experimental-parameters: liver microsomes, read-out: Drug metabolism
Property: metabolised at 20 min, 5 µM; scope: individual molecules
The response must be a number in % with no trailing unit.

Guide cases for metabolised at 20 min, 5 µM, answers given:
O=C(NCCN1CCOCC1)Nc1nc2ccc(Sc3nnc4ccc(NC5CC5)nn34)cc2s1: 26
CCOc1ccc2nnc(Sc3ccc4nc(NC(=O)NCCN5CCOCC5)sc4c3)n2n1: 51
O=C(NCCN1CCOCC1)Nc1nc2ccc(Sc3nnc4ccc(OC5CCCCC5)nn34)cc2s1: 23

Now, please, on to the next molecule.
Look up metabolised at 20 min, 5 µM: O=C(NCCN1CCOCC1)Nc1nc2ccc(Sc3nnc4cccnn34)cc2s1
11

###

# assay-name: Clearance in SCID mouse bearing advanced-stage human Hs746T cells at 20 mg/kg, iv administered as single dose after 1 to 72 hrs by liquid chromatography-tandem mass spectrometry
# Format: ADME, organism-based
# experimental-parameters: in vivo
measurement-kind: clearance (mL/min/kg)
The response must be a number in mL/min/kg with no trailing unit.

Look up clearance: O=C(NCCN1CCOCC1)Nc1nc2ccc(Sc3nnc4ccc(-c5ccc(F)cc5)nn34)cc2s1
51.7

###

Property: solubility thermodynamic; scope: individual compounds
# assay-name: Equilibrium solubility in phosphate buffer in presence of 10% Labrasol at pH 7.4
# Type: physicochemical
# experimental-parameters: phosphate buffer with 10% Labrasol
The response must be a number in µM with no trailing unit.

Guide cases for solubility thermodynamic, answers given:
O=C(NCCN1CCOCC1)Nc1nc2ccc(Sc3nnc4ccc(-c5ccc(F)cc5)nn34)cc2s1: 500
CCOc1ccc2nnc(Sc3ccc4nc(NC(=O)NCCN5CCOCC5)sc4c3)n2n1: 460

Now, please, on to the next compound.
Look up solubility thermodynamic: O=C(NCCN1CCOCC1)Nc1nc2ccc(Sc3nnc4cccnn34)cc2s1
1070

###

# assay-name: Drug uptake in tumor of SCID mouse bearing advanced-stage human Hs746T cells at 20 mg/kg, iv administered as single dose after 24 hrs by liquid chromatography-tandem mass spectrometry
# Type: ADME, organism-based, Neoplasm
# experimental-parameters: read-out: Drug uptake
measurement-kind: concentration at 24 h (ng/mL)
The response must be a number in ng/mL with no trailing unit.

Look up concentration at 24 h: O=C(NCCN1CCOCC1)Nc1nc2ccc(Sc3nnc4ccc(-c5ccc(F)cc5)nn34)cc2s1 [SAR-125844]
300

###

# assay-name: Apparent permeability from apical to basolateral side in human Caco2/TC7 cells at 20 uM by liquid chromatography-tandem mass spectrometry
# experimental-parameters: Caco-2
Property: Papp A→B at 20 µM; scope: individual molecules
The response must be a number in ×10⁻⁶ cm/s with no trailing unit.

O=C(NCCN1CCOCC1)Nc1nc2ccc(Sc3nnc4ccc(NC5CCOCC5)nn34)cc2s1: 0.2
O=C(NCCN1CCOCC1)Nc1nc2ccc(Sc3nnc4ccc(Oc5ccccc5)nn34)cc2s1: 0.8
O=C(NCCN1CCOCC1)Nc1nc2ccc(Sc3nnc4ccc(-c5cccc(F)c5)nn34)cc2s1: 0.4

Look up Papp A→B at 20 µM: O=C(NCCN1CCOCC1)Nc1nc2ccc(Sc3nnc4ccc(Oc5cccc(F)c5)nn34)cc2s1
0.8
